B1: STX11 (parent)
chain: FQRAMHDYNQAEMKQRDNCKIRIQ

Variants of: B1
Experiment: protein stability index of a GFP-peptide fusion (GPS, HEK-293T) (PSI 1-6); higher = more stable;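 note: lentivirally expressed fusions sorted by FACS into six bins by GFP to DsRed ratio, PSI derived from sequencing read proportions per bin multiplied by bin number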
Conditions: c terminus: a fixed tail appended
The threshold is inclusive: protein stability index of exactly 3 counts as 1; values below receive 0.

Mutation list | Group label
F1D | 1
F1G | 1
D17G | 0
D17T | 0
D17I | 0
Q24T | 0
Q24I | 0
R16W | 0
Q24D | 0
Q2W | 0
K20D | 1
E12K | 0
Q2P | 0
K14H | 0
Q15D | 0
Q24K | 0
Q10H | 0
N18K | 0
I21M | 1
I23D | 1
N18E | 1
H6N | 1
C19F | 0
I23V | 0
K14E | 1
I21T | 1
Q2I | 0
Q10I | 0
Q2K | 1
E12Y | 0

Values compiled from the supplement of paper PMC10567573.
